Quick list: GI50 per entry.
tested on: SR; test: NCI tumour cell line growth inhibition, 48 h
Activity calls are given as the source filed them. No stated cut-off is given here; in the data, active = GI50 up to about 1.1 µM and inactive = higher.
measured-endpoint: GI50

{"molecule": "CCC(=O)c1ccc2[nH]c3c(C)c4c(O)cc(C)nc4c(C)c3c2c1", "measured-endpoint": "GI50", "assay-result": "40.6 µM (inactive)"}
{"molecule": "Cc1ccc(NC(=O)CC/C(CC(=O)C(C)(C)C)=N/NC(=O)C[N+](C)(C)C)cc1C", "measured-endpoint": "GI50", "assay-result": "84.1 µM (inactive)"}
{"molecule": "CCN(CC)C1CCC(C2c3cc4c(cc3OC(N3CCOCC3)C2C)OCO4)CC1 (stereo not given)", "measured-endpoint": "GI50", "assay-result": "23.4 µM (inactive)"}
{"molecule": "O=c1c(-c2ccccc2)c(SCCCN2CCN(c3cccc(Cl)c3)CC2)n(-c2ccccc2)c(=S)n1-c1ccccc1", "measured-endpoint": "GI50", "assay-result": "29 µM (inactive)"}
{"molecule": "Cc1cc2c(cc1C)[n+]([O-])c(C(=O)CC(=O)C(=O)Nc1c(C(C)C)cccc1C(C)C)c(C)[n+]2[O-]", "measured-endpoint": "GI50", "assay-result": "> 100 µM (inactive)"}

---

test system: OVCAR-3; test: NCI tumour cell line growth inhibition, 48 h
The source made the active and inactive calls. Cut-off read from the data, not from the text of the source: active = GI50 up to about 1.1 µM and inactive = higher.

{"compound": "COc1ccc(C2=C(N)c3ncccc3C2=O)cc1", "GI50": "91.2 µM (inactive)"}
{"compound": "Cc1ccc(NC(=O)CC/C(CC(=O)C(C)(C)C)=N/NC(=O)C[N+](C)(C)C)cc1C", "GI50": "> 100 µM (inactive)"}
{"compound": "O=c1[nH]c(=O)n(C2CC(O)C(CO)O2)cc1OCCCc1ccccc1 (stereo not drawn)", "GI50": "> 100 µM (inactive)"}
{"compound": "CC1=NN(c2cccc(Cl)c2)C(=N/c2nc3ccccc3s2)/C1=C\\c1ccc(Cl)cc1", "GI50": "21.7 µM (inactive)"}
{"compound": "O=C(Cn1c(C(=O)/C=C/c2cccs2)nc2ccccc21)c1ccc(Cl)cc1", "GI50": "15.5 µM (inactive)"}
{"compound": "Cc1ccc(/C=C2\\NC(=S)NC2=O)cc1", "GI50": "> 100 µM (inactive)"}
{"compound": "C/C(=N\\NC(=S)N1CCC(N2CCCCC2)CC1)c1ccccn1", "GI50": "2.4 µM (inactive)"}
{"compound": "Nn1c(S)nnc1NNC(=O)C(=O)Nc1cc(Cl)c(Cl)cc1Cl", "GI50": "> 100 µM (inactive)"}

---

system: RPMI-8226; assay: NCI tumour cell line growth inhibition, 48 h
Activity calls are given as the source filed them. Rule as the data show it: active = GI50 up to about 1.1 µM and inactive = higher.
Quick list: GI50 per entry.

{"compound": "COc1cc(C2c3[nH]c4ccc(F)cc4c3C[C@H]3COC(=O)N23)cc(OC)c1O (stereo partly drawn)", "GI50": "96.6 µM (inactive)"}
{"compound": "COC(=O)c1cc(/C=C2\\Cc3cc4c(cc3C2=O)CCC4)cc2c1CCC2", "GI50": "> 100 µM (inactive)"}
{"compound": "COc1cc(/C=C/C(=N\\NC(N)=S)c2sc(NNC(C)=O)nc2C)ccc1O", "GI50": "> 100 µM (inactive)"}
{"compound": "C=CCC1=C(C)C[C@@H]2CCC(=O)C=C12", "GI50": "> 100 µM (inactive)"}
{"compound": "Cc1ccc2c(=O)c(-c3nnc(N)s3)c[nH]c2n1", "GI50": "> 100 µM (inactive)"}
{"compound": "CCN(CC)C(=O)COc1cc2c(O)c3c(O)c(C)c4c(c13)C(=O)C(C)(OC=CC(OC)C(C)C(OC(C)=O)C(C)C(O)C(C)C(O)C(C)C=CC=C(C)C(=O)N2)O4 (stereo not drawn)", "GI50": "37.4 µM (inactive)"}
{"compound": "CC1(C=O)CCC23COC4(CCC5C6(C)CCC(OC7OCC(OC8OC(CO)C(O)C(OC9OC(CO)C(O)C(O)C9O)C8OC8OCC(O)C(O)C8O)C(O)C7OC7OC(CO)C(O)C(O)C7O)C(C)(C)C6CCC5(C)C4(C)CC2O)C3C1 (stereo not drawn)", "GI50": "1.71 µM (inactive)"}
{"compound": "Oc1ccc[n+](Cc2ccccc2)c1", "GI50": "> 100 µM (inactive)"}
